Tested on: spontaneous hypertensive rats
MEASUREMENT DESCRIPTION: antihypertensive activity by oral administration to spontaneous hypertensive rats
Assay type: in vivo, rat
SETUP CONDITIONS: oral, spontaneous hypertensive rat; read-out: Antihypertensive ED50 mm Hg
Structures can show the parent of a compound that is named as a salt.
MEASUREMENT TYPE: ED50 (mg/kg)
Report the value in mg/kg with no unit label.

The cases that follow already have their ED50 on record.
| COMPOUND | UNITS OF MEASURE | ED50 |
| --- | --- | --- |
| COc1cc2nc(N3CCN(C(=O)c4csnn4)CC3)nc(N)c2cc1OC.Cl | mg/kg | 4 |
| CCOC(=O)Nc1snnc1C(=O)N1CCN(c2nc(N)c3cc(OC)c(OC)cc3n2)CC1 [Example 1, Hydrochloride] | mg/kg | 2.8 |
| COc1cc2nc(N3CCN(C(=O)c4ccco4)CC3)nc(N)c2cc1OC [prazosin, reference compound] | mg/kg | 2.1 |

Shifting focus to the compound that follows.
# input Find the measured ED50: item "COc1cc2nc(N3CCN(C(=O)c4cnns4)CC3)nc(N)c2cc1OC.Cl" , target or system spontaneous hypertensive rats.
# output 4
